Record form. Attribute: Kd. Fill in for each entry.
# EXPERIMENTAL_TARGET: T1, EsCas13d, nuclease-dead (Eubacterium siraeum, UniProt B0MS50, R295A;H300A;R849A;H854A)
# T1 sequence: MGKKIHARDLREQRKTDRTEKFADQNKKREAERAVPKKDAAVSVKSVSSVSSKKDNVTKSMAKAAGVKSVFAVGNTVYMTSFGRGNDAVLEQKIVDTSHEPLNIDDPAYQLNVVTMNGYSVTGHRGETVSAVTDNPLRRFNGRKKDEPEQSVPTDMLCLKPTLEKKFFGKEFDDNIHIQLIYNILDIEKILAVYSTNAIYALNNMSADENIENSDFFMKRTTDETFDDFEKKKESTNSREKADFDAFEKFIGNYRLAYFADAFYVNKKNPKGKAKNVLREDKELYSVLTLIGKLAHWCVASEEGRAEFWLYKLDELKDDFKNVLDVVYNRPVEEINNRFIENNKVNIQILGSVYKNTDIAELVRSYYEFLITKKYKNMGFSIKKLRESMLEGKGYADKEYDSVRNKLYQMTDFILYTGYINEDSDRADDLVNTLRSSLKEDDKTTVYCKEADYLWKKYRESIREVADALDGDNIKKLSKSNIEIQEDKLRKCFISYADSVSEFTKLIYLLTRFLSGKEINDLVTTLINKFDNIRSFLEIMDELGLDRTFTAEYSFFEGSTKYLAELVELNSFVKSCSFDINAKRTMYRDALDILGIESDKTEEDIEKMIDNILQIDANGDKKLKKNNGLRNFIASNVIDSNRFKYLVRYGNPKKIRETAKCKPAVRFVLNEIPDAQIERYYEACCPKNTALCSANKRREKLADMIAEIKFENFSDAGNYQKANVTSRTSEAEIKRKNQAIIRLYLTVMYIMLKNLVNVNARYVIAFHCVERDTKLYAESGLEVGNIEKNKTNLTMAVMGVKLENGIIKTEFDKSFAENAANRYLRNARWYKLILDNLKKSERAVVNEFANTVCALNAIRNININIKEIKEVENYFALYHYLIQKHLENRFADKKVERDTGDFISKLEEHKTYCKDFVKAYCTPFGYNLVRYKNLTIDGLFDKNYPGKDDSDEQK
# TEST_DESCRIPTION: crRNA (strand 1, pre-loaded); Mg2+; 40 mM Tris-HCl pH 7.5, 150 mM NaCl, 6 mM MgCl2, 1 mM DTT, 0.1% Tween-20, 0.2 mg/ml BSA; 25 C; 10 min per concentration, then washed
# ASSAY_SETUP: tags: His6-TwinStrep-SUMO cleaved; N-terminal SNAP kept (SNAP-Surface 488); label: 3' end held by stalled T7 RNA polymerase

Request: Using the record for target 1 insU 3' of 12,insG 3' of 2 (mixed) RNA 1: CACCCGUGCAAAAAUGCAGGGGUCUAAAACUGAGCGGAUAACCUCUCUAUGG RNA 2: GGGAAUGGAUCCACAUCUACGAAUUCGUACCAUAGAGAGGUUUAUCCGCUCGACCGAGAUCGGAAGAGCACACGU , state its measured Kd.
Response: 6.9 nM

Request: Using the record for target 1 insA 3' of 7,insA 3' of 3 (mixed) RNA 1: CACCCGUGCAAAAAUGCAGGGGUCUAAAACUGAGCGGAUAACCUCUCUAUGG RNA 2: GGGAAUGGAUCCACAUCUACGAAUUCGUACCAUAGAGAGGUUAUCACGCUACACCGAGAUCGGAAGAGCACACGU , state its measured Kd.
Response: 5.5 nM

Request: Using the record for target 1 insG 3' of 9,insU 3' of 7 (mixed) RNA 1: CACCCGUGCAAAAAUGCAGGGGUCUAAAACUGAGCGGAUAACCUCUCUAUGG RNA 2: GGGAAUGGAUCCACAUCUACGAAUUCGUACCAUAGAGAGGUUAGUCUCGCUCACCGAGAUCGGAAGAGCACACGU , state its measured Kd.
Response: 16.4 nM

---
Request: Using the record for target 1 C4A,A9C (mixed) RNA 1: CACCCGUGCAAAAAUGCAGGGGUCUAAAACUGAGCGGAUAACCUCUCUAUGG RNA 2: GGGAAUGGAUCCACAUCUACGAAUUCGUACCAUAGAGAGGUUCUCCGAUCACCGAGAUCGGAAGAGCACACGU , state its measured Kd.
Response: 7.1 nM
